experiment: Selectivity index, ratio of IC50 for rat L6 cells to IC50 for Plasmodium falciparum K1; type: toxicity, cell-based; conditions: read-out: Ratio IC50
What selectivity ratio was measured for each of the following?
Keep the answer to the number alone.

Record summary for COc1cc(C(=N)N)ccc1-c1cn(-c2ccc(C(=N)N)cc2)nn1.Cl.Cl : reported selectivity ratio = 29700

For COc1ccc(C(=N)NC(C)C)cc1-n1cc(-c2cccc(C(=N)NC(C)C)c2)nn1 the molecule record lists selectivity ratio as 1050

According to the records, this molecule CC(C)NC(=N)c1ccc(-c2cn(-c3cccc(C(=N)NC(C)C)c3)nn2)cc1 displays selectivity ratio of 4490
